In this section we review reported Therap. index values for a set of compounds.
- Tested on: wild-type (AB) zebrafish (Danio rerio)
- Assay Explanation: animal or person
- Format: in vivo
- Method: Larval zebrafish were produced in the University of Toledo zebrafish core facility and housed in an incubator maintained at 28 °C on a 14:10 h cycle. Fish were acclimated to the testing room conditions the evening prior to testing. […] The movement of larval zebrafish was monitored with the Noldus behavior recording system (Noldus Information Technology, Leesburg VA) and quantified using EthoVision® XT 15 software (Noldus Information Technology, Leesburg VA). […]

# count of solved cases: 6
COc1ccc(CN2C(=O)C(=O)c3ccccc32)cc1Cl
3.3
COc1cc(CN2C(=O)C(=O)c3ccccc32)cc(OC)c1OC
30
COc1ccc(CN2C(=O)C(=O)c3ccccc32)cc1Br
100
O=C1C(=O)N(Cc2cc(F)c(F)c(F)c2)c2ccccc21
10
CCCCc1oc2ccccc2c1C(=O)c1ccc(OCCN(CC)CC)cc1
30
COc1ccc(CN2C(=O)C(=O)c3ccccc32)cc1I
10

Item `COc1c(Cl)cc(CN2C(=O)C(=O)c3ccccc32)cc1Cl` : provide Therap. index
100

Fill in reported Therap. index for this entry: CCCCc1oc2ccc(NS(C)(=O)=O)cc2c1C(=O)c1ccc(OCCCN(CCCC)CCCC)cc1 [Dronedarone, reference compound]
1

Provide only the value of recorded Therap. index for `COc1c(I)cc(CN2C(=O)C(=O)c3ccccc32)cc1I`
> 100

Find the measured Therap. index of O=C1C(=O)N(Cc2ccc(O)cc2)c2ccccc21 [Compound 10, 1-(4-hydroxybenzyl)indoline-2,3-dione] and report it.
3.3

Using known records, supply Therap. index for `COc1ccc(CN2C(=O)C(=O)c3ccccc32)cc1F`
10

Provide Therap. index value for the following compound: `COc1c(F)cc(CN2C(=O)C(=O)c3ccccc32)cc1F`
30

Please list Therap. index recorded for the compound `CCN(CC)CCOc1c(Br)cc(CN2C(=O)C(=O)c3ccccc32)cc1Br.Cl`
1

Answer with the recorded Therap. index for the compound listed here: `CCCCc1oc2ccccc2c1C(=O)c1cc(I)c(OCCNCC)c(I)c1.Cl`
1
